Test system: Staphylococcus aureus
assay-info: Antibacterial activity against penicillin-resistant Staphylococcus aureus ATCC43300 by broth microdilution assay
Type: functional
measured-parameter: MIC

// worked examples, MIC included
| smiles-repr | measured-parameter | experimental-result |
| --- | --- | --- |
| CCCCCC[N+](C)(C)CCCCCCCOc1ccc(C(=O)/C=C/c2ccccc2)cc1.[Br-] | MIC | 4 µg/mL |
| CC(C)=CC(=O)Nc1cc[n+](CCCOc2ccc(C(=O)/C=C/c3ccccc3)cc2)cc1.[Br-] | MIC | > 128 µg/mL |

Item `CCCCCCNC(=O)C[N+](C)(C)CCCOc1ccc(/C=C/C(=O)c2ccc(OCCC[N+](C)(C)CC(=O)NCCCCCC)cc2)cc1.[Br-].[Br-]` with Staphylococcus aureus - MIC?
1 µg/mL

Item `CCCC[N+](C)(C)CCCCCCCOc1ccc(C(=O)/C=C/c2ccccc2)cc1.[Br-]` with Staphylococcus aureus - MIC?
8 µg/mL

====

MIC listing for selected compounds.
System: Staphylococcus aureus
assay-info: Antibacterial activity against penicillin-resistant Staphylococcus aureus ATCC43300 by broth microdilution assay
Type: functional
Report the value in µg/mL with no unit label.

// worked examples, MIC included
| smiles-repr | measured-on | experimental-result |
| --- | --- | --- |
| CCCCCC[N+](C)(C)CCCOc1ccc(C(=O)/C=C/c2ccccc2)cc1.[Br-] | Staphylococcus aureus | 16 |
| CCCCCCCCCCNC(=O)C[N+](C)(C)CCCOc1ccc(/C=C/C(=O)c2ccc(OCCC[N+](C)(C)CC(=O)NCCCCCCCCCC)cc2)cc1.[Br-].[Br-] | Staphylococcus aureus | 64 |
| CCCCCCCCCCCC[N+](C)(C)CCCOc1ccc(C(=O)/C=C/c2ccccc2)cc1.[Br-] | Staphylococcus aureus | 4 |

The record that follows has no MIC shown yet.
Item `CCCCCCCC[N+](C)(C)CCCCCOc1ccc(C(=O)/C=C/c2ccccc2)cc1.[Br-]` with Staphylococcus aureus - MIC?
2

====

Test system: Staphylococcus aureus
assay-info: Antibacterial activity against penicillin-resistant Staphylococcus aureus ATCC43300 by broth microdilution assay
Type: functional
measured-parameter: MIC

// worked examples, MIC included
| smiles-repr | MIC |
| --- | --- |
| O=C(Cc1ccc(-c2ccccc2)cc1)Nc1cc[n+](CCCOc2ccc(C(=O)/C=C/c3ccccc3)cc2)cc1.[Br-] | > 128 µg/mL |
| CCCCCC[N+](C)(C)CCCCCOc1ccc(C(=O)/C=C/c2ccccc2)cc1.[Br-] | 16 µg/mL |
| COc1ccc(CC(=O)Nc2cc[n+](CCCOc3ccc(C(=O)/C=C/c4ccccc4)cc3)cc2)cc1.[Br-] | 8 µg/mL |
| CCCCCCOc1cc[n+](CCCOc2ccc(/C=C/C(=O)c3ccc(OCCC[n+]4ccc(OCCCCCC)cc4)cc3)cc2)cc1.[Br-].[Br-] | 0.5 µg/mL |

So what's the measured MIC for this one? `CCCCCCCCOc1cc[n+](CCCOc2ccc(/C=C/C(=O)c3ccc(OCCC[n+]4ccc(OCCCCCCCC)cc4)cc3)cc2)cc1.[Br-].[Br-]`
32 µg/mL

So what's the measured MIC for this one? `CCCCCCCCCCCCCC[N+](C)(C)CCCOc1ccc(/C=C/C(=O)c2ccc(OCCC[N+](C)(C)CCCCCCCCCCCCCC)cc2)cc1.[Br-].[Br-]`
128 µg/mL

So what's the measured MIC for this one? `CCCCCCCC[N+](C)(C)CCCOc1ccc(/C=C/C(=O)c2ccc(OCCC[N+](C)(C)CCCCCCCC)cc2)cc1.[Br-].[Br-]`
1 µg/mL

====

MIC listing for selected compounds.
System: Pseudomonas aeruginosa
assay-info: Antibacterial activity against penicillin-susceptible Pseudomonas aeruginosa ATCC27853 by broth microdilution method
Type: functional

// worked examples, MIC included
| smiles-repr | measured-on | experimental-result |
| --- | --- | --- |
| CCCCCCCC[N+](C)(C)CCCCCCCOc1ccc(C(=O)/C=C/c2ccccc2)cc1.[Br-] | Pseudomonas aeruginosa | > 128 µg/mL |
| CCCCCCCC[N+](C)(C)CCCCCOc1ccc(C(=O)/C=C/c2ccccc2)cc1.[Br-] | Pseudomonas aeruginosa | > 128 µg/mL |
| CCCCCCCCCCOc1cc[n+](CCCOc2ccc(/C=C/C(=O)c3ccc(OCCC[n+]4ccc(OCCCCCCCCCC)cc4)cc3)cc2)cc1.[Br-].[Br-] | Pseudomonas aeruginosa | > 128 µg/mL |

The record that follows has no MIC shown yet.
So what's the measured MIC for this one? `CCCCCC[N+](C)(C)CCCOc1ccc(C(=O)/C=C/c2ccccc2)cc1.[Br-]`
> 128 µg/mL

====

assay-info: Cytotoxicity against human L02 cells by CCK8 assay
Format: toxicity, cell-based
measured-parameter: CC50 (µg/mL)
Report the value in µg/mL with no unit label.

So what's the measured CC50 for this one? `CCCCCCOc1cc[n+](CCCOc2ccc(/C=C/C(=O)c3ccc(OCCC[n+]4ccc(OCCCCCC)cc4)cc3)cc2)cc1.[Br-].[Br-]`
25.9

====

assay-info: Selectivity index, ratio of HC50 for hemolytic activity in red blood cells (unknown origin) to MIC for antibacterial activity against penicillin-resistant Staphylococcus aureus ATCC43300
Type: toxicity, cell-based, RBC
experimental-context: read-out: Selectivity Index
selectivity ratio listing for selected molecules.
Hey, just send me the number, nothing else.

| smiles-repr | selectivity ratio |
| --- | --- |
| CCCCCCCCNC(=O)C[N+](C)(C)CCCOc1ccc(/C=C/C(=O)c2ccc(OCCC[N+](C)(C)CC(=O)NCCCCCCCC)cc2)cc1.[Br-].[Br-] | 17.4 |
| CCCCCCCC[N+](C)(C)CCCCCOc1ccc(C(=O)/C=C/c2ccccc2)cc1.[Br-] | 25.2 |

So what's the measured selectivity ratio for this one? `CCCCCCCCCCNC(=O)C[N+](C)(C)CCCOc1ccc(/C=C/C(=O)c2ccc(OCCC[N+](C)(C)CC(=O)NCCCCCCCCCC)cc2)cc1.[Br-].[Br-]`
1

So what's the measured selectivity ratio for this one? `CCCCCCCCCC[N+](C)(C)CCCOc1ccc(/C=C/C(=O)c2ccc(OCCC[N+](C)(C)CCCCCCCCCC)cc2)cc1.[Br-].[Br-]`
22

So what's the measured selectivity ratio for this one? `CCCC[N+](C)(C)CCCOc1ccc(/C=C/C(=O)c2ccc(OCCC[N+](C)(C)CCCC)cc2)cc1.[Br-].[Br-]`
73.8

So what's the measured selectivity ratio for this one? `CCCCCCCCCCCC[N+](C)(C)CCCOc1ccc(C(=O)/C=C/c2ccccc2)cc1.[Br-]`
55.1

So what's the measured selectivity ratio for this one? `CCCCCCCCCCCC[N+](C)(C)CCCCCOc1ccc(C(=O)/C=C/c2ccccc2)cc1.[Br-]`
20.9

So what's the measured selectivity ratio for this one? `CCCCCCCC[N+](C)(C)CCCOc1ccc(C(=O)/C=C/c2ccccc2)cc1.[Br-]`
17.2

So what's the measured selectivity ratio for this one? `CCCCCC[N+](C)(C)CCCCCOc1ccc(C(=O)/C=C/c2ccccc2)cc1.[Br-]`
7

So what's the measured selectivity ratio for this one? `CCCCCCOc1cc[n+](CCCOc2ccc(/C=C/C(=O)c3ccc(OCCC[n+]4ccc(OCCCCCC)cc4)cc3)cc2)cc1.[Br-].[Br-]`
659

So what's the measured selectivity ratio for this one? `CCCC[N+](C)(C)CCCCCCCOc1ccc(C(=O)/C=C/c2ccccc2)cc1.[Br-]`
16.3

So what's the measured selectivity ratio for this one? `CCCCCCCCOc1cc[n+](CCCOc2ccc(/C=C/C(=O)c3ccc(OCCC[n+]4ccc(OCCCCCCCC)cc4)cc3)cc2)cc1.[Br-].[Br-]`
5.6

So what's the measured selectivity ratio for this one? `O=C(CC12CC3CC(CC(C3)C1)C2)Nc1cc[n+](CCCOc2ccc(C(=O)/C=C/c3ccccc3)cc2)cc1.[Br-]`
5.5

====

assay-info: Hemolytic activity in red blood cells (unknown origin)
Type: toxicity, cell-based, Erythrocyte
With a cut-off of 100 µg/mL, any HC50 strictly below it is called 1; any HC50 meeting it or above is called -1.

| smiles-repr | category |
| --- | --- |
| CC(C)=CC(=O)Nc1cc[n+](CCCOc2ccc(C(=O)/C=C/c3ccccc3)cc2)cc1.[Br-] | -1 |
| CCCC(=O)Nc1cc[n+](CCCOc2ccc(C(=O)/C=C/c3ccccc3)cc2)cc1.[Br-] | -1 |
| CCCCCCCC[N+](C)(C)CCCCCOc1ccc(C(=O)/C=C/c2ccccc2)cc1.[Br-] | 1 |

Lab log: compare recorded HC50 with 100 µg/mL; is it strictly lower for `CCCCCCCC[N+](C)(C)CCCCCCCOc1ccc(C(=O)/C=C/c2ccccc2)cc1.[Br-]` ?
-1

Lab log: compare recorded HC50 with 100 µg/mL; is it strictly lower for `CCCC[N+](C)(C)CCCCCOc1ccc(C(=O)/C=C/c2ccccc2)cc1.[Br-]` ?
-1

Lab log: compare recorded HC50 with 100 µg/mL; is it strictly lower for `CCCCCCCCCCNC(=O)C[N+](C)(C)CCCOc1ccc(/C=C/C(=O)c2ccc(OCCC[N+](C)(C)CC(=O)NCCCCCCCCCC)cc2)cc1.[Br-].[Br-]` ?
1

Lab log: compare recorded HC50 with 100 µg/mL; is it strictly lower for `CCCC[N+](C)(C)CCCOc1ccc(C(=O)/C=C/c2ccccc2)cc1.[Br-]` ?
1

Lab log: compare recorded HC50 with 100 µg/mL; is it strictly lower for `CCCCCCCCCCCC[N+](C)(C)CCCOc1ccc(C(=O)/C=C/c2ccccc2)cc1.[Br-]` ?
-1
